Source of measurements: patent US20160237154A1

- target entity: T1, human CTLA4 (human, UniProt P16410 36-161, limits assumed)
- T1 sequence (looked up): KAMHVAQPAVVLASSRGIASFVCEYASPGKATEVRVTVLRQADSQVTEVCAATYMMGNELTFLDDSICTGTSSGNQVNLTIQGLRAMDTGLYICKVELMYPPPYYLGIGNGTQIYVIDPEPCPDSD
- assay info: selection of human antibodies; method not described

binder | binding result
F5 (antibody, V domains shown) VH: EVQLVQSGTEVKKPGSSVKVSCKASGGSFSNYAISWVRQAPGQGLEWMGRIIPILGIANYAQKFQGRVTITADKSTSTAYMELSSLGSEDTAVYYCARESGSYLDPWGQGTLVTVSS VL: DIVMTQSPDSLAVSLGERATINCKSSQSVLYSPNNKNYLTWYQQKPGQPPKLLMYWASTRESGVPDRFSASGSGTDFTLTISSLQAEDVAVYYCQQSRSGPYTFGQGTKVEIK | binds
B6 (antibody, V domains shown) VH: QVQLVQSGAEVKKPGATVKVSCTASGFPFRNYAMHWVRQAPGQRLEWLGWIDAGNGNTKYSQTFHGRVTITRDTSASTAYMELSSLRSEDTAVYYCARDLLWPYLVTSGGAFDIWGQGTMVTVSS VL: SYELMQPPSTSGTPGQRVTISCSGSSSNIGSHIVNWYQQFPGAAPQLLIYNDDQRPSGVPDRFSGSKSGASASLAISGLQSEDEAHYYCSAWDDILKGPVFGGGTKLTVL | binds
D5 (antibody, V domains shown) VH: QVQLQQSGPGLVKPSQTLSLTCAISGDSVSSNSAAWNWIRQSPSRGLEWLGRTYYRSKWYNDYAVSVKSRITINPDTSKNQFSLQLNSVTPEDTAVYYCAMHSGYRNYGMDVWGQGTTVTVSS VL: QSVVTQPPSVSGAPGQRVTISCTGSSSNIGAGYDVHWYQQLPGTAPKLLIYGNSNRPSGVPDRFSGSKSGTSASLAITGLQAEDEADYYCQSYDSSLSGAVVFGGGTKLTVL | binds
